Biological target: Estrogen receptor (Homo sapiens) (UniProt P03372)
Sequence (P03372 whole entry, looked up): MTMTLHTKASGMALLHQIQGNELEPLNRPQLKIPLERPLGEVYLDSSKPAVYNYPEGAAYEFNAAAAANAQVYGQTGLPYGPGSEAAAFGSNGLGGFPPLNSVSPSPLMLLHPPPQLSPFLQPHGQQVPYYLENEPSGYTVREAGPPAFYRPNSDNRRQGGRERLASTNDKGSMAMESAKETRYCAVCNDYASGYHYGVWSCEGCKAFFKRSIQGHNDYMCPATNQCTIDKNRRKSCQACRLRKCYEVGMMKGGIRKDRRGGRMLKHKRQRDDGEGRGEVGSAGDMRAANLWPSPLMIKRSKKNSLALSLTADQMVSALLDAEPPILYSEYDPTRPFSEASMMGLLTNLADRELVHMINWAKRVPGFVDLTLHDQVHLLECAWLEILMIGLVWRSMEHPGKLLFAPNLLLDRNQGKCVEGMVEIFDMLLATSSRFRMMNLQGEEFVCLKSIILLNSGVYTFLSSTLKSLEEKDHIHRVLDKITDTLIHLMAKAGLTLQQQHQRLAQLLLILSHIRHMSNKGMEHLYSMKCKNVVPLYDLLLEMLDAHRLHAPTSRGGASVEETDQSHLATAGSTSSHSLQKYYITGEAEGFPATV
Experiment: qHTS assay for small molecule antagonists of estrogen receptor alpha signaling (AID 588513)
Settings: ER-alpha-UAS-bla HEK293, beta-lactamase ratio, antagonist mode; series mostly up to 76.9 µM
Inconclusive results are not listed. Activity calls are given as the source filed them. The call rests on the fitted dose curve; in most records, active means well fitted curve in the direction sought with a large enough effect in the signal ratio, with a control signal flat (not every such curve was filed as active); inconclusive means small, poorly fitted or top-dose-only effect, or effect the other way, or a change in a side signal; inactive means no such curve, though single readings can be large or run the other way; the % refers to the signal ratio.
ENDPOINT_NAME: outcome

Previously resolved entries follow.
// query Find the recorded outcome belonging to Cc1ccc(N)cc1N and report it.
// result inactive

// query Try the compound Cc1cc(-c2cc(C)c(N)c(C)c2)cc(C)c1N
// result inactive

// query Oc1c(Cl)cccc1Cl ?
// result inactive

// query Field entry: CC(C)OS(C)(=O)=O
// result inactive

// query Follow-up item: CN1CSC(=S)N(C)C1
// result inactive

// query Record: NNC(N)=S
// result inactive

Others:
// query Param item = ClCC(Br)CBr (configuration not stated) ; retrieve measured outcome.
// result inactive

Taken from PubChem BioAssay (NCATS).
